Parameter: pIC50. Scope: all listed entries.
Biological target: KRAS G13C (Homo sapiens, UniProt P01116+P62937, G13C)
Sequence (P01116 1-169 isoform P01116-2 G13C limits assumed): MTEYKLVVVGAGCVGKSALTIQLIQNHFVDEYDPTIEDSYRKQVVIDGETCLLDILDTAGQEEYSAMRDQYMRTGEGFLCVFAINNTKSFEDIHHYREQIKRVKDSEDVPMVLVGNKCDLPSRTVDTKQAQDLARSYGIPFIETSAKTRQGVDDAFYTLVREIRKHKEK
Sequence (P62937 whole entry): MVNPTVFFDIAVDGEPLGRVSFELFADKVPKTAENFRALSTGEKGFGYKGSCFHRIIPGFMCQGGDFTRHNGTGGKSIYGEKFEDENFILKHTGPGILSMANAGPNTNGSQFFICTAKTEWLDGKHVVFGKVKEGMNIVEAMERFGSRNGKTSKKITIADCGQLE
Test: Ras-Raf disruption/FRET/MOA assay, KRAS G13C
Format: biochemical
pIC50: −log10 of the molar value.

Sample records with pIC50:
CCn1c(-c2cccnc2[C@H](C)OC)c2c3cc(ccc31)-c1cc(O)cc(c1)C[C@H](NC(=O)[C@H](C(C)C)N(C)C(=O)CN(C)C(=O)[C@@H]1CN1)C(=O)N1CCC[C@H](N1)C(=O)OCC(C)(C)C2; 7.00 to 8.00
CCn1c(-c2cnccc2COC)c2c3cc(ccc31)-c1cc(O)cc(c1)C[C@H](NC(=O)[C@H](C(C)C)N(C)C(=O)CN(C)C(=O)[C@@H]1CN1)C(=O)N1CCC[C@H](N1)C(=O)OCC(C)(C)C2; 7.00 to 8.00
CCn1c(-c2cnccc2COC)c2c3cc(ccc31)-c1cc(O)cc(c1)C[C@H](NC(=O)[C@H](C(C)C)N(C)C(=O)CN(C)C(=O)[C@@H]1N[C@@H]1c1ccccc1)C(=O)N1CCC[C@H](N1)C(=O)OCC(C)(C)C2; 6.00 to 7.00
CCC(C)N(C)C(=O)c1cncc(-c2c3c4cc(ccc4n2CC)-c2cc(O)cc(c2)C[C@H](NC(=O)[C@H](C(C)C)N(C)C(=O)CN(C)C(=O)[C@H]2CN2)C(=O)N2CCC[C@H](N2)C(=O)OCC(C)(C)C3)c1 (stereo partly drawn); 7.00 to 8.00
CCn1c(-c2cnccc2COC)c2c3cc(ccc31)-c1cc(O)cc(c1)C[C@H](NC(=O)[C@H](C(C)C)N(C)C(=O)CN(C)C(=O)[C@H]1CN1)C(=O)N1CCC[C@H](N1)C(=O)OCC(C)(C)C2; 7.00 to 8.00

Kindly consider the entry below.
-- ask For CCn1c(-c2cnccc2COC)c2c3cc(ccc31)-c1cc(O)cc(c1)C[C@H](NC(=O)[C@H](C(C)C)N(C)C(=O)CN(C)C(=O)[C@H]1CN1Cc1ccccc1)C(=O)N1CCC[C@H](N1)C(=O)OCC(C)(C)C2 (stereo partly drawn) , write its pIC50.
-- reply 6.00 to 7.00

---

Target: KRAS G12S (Homo sapiens, UniProt P01116+P62937, G12S)
Sequence (P01116 1-169 isoform P01116-2 G12S limits assumed): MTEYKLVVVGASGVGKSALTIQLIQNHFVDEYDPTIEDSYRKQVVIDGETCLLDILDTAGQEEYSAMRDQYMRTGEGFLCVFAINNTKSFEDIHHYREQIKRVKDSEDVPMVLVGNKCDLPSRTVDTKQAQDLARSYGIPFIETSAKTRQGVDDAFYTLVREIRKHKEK
Sequence (P62937 whole entry): as the sequence (P62937 whole entry) above
Assay: Ras-Raf disruption/FRET/MOA assay, KRAS G12S
Assay type: biochemical
Details: disruption of BRAF RBD binding, with Cyclophilin A; read-out: KRAS G12S FRET IC50
From the text: Disruption of B-Raf Ras-Binding Domain (BRAF^RBD) Interaction with K-Ras by Compounds of the Invention (Also Called a FRET Assay or an MOA Assay) Note—The following protocol describes a procedure for monitoring disruption of K-Ras G12C (GMP-PNP) binding to BRAF^RBD by a compound of the invention. This protocol may also be executed substituting other Ras proteins or nucleotides, such as K-Ras G12D and K-Ras G13D. […]
pIC50: −log10 of the molar value.
MEASURED_METRIC: pIC50

Answered cases to consult:
CCn1c(-c2cccnc2[C@H](C)OC)c2c3cc(ccc31)-c1cc(O)cc(c1)C[C@H](NC(=O)[C@H](C(C)C)N1CC[C@@]3(CCN(C[C@H]4CN4)C3)C1=O)C(=O)N1CCC[C@H](N1)C(=O)OCC(C)(C)C2 (single isomer, unassigned) [Example 139]; 7.00 to 8.00
CCn1c(-c2cccnc2[C@H](C)OC)c2c3cc(ccc31)-c1csc(n1)C[C@H](NC(=O)[C@H](C(C)C)N(C)C(=O)N1C3CCC1CN(C(=O)[C@@H]1CN1)C3)C(=O)N1CCC[C@H](N1)C(=O)OCC(C)(C)C2 [Compound 304]; 6.00 to 7.00
CCn1c(-c2cccnc2[C@H](C)OC)c2c3cc(ccc31)-c1cc(O)cc(c1)C[C@H](NC(=O)[C@H](C1CCCC1)N(C)C(=O)[C@H]1CCN(C(=O)[C@H]3CN3)C1)C(=O)N1CCC[C@H](N1)C(=O)OCC(C)(C)C2 [Compound 58]; 7.00 to 8.00

-- ask Read off the recorded pIC50 for CCn1c(-c2cccnc2[C@H](C)OC)c2c3cc(ccc31)-c1cc(O)cc(c1)C[C@H](NC(=O)[C@H](C(C)C)N1CC[C@]3(CCCN(C(=O)[C@@H]4CN4)C3)C1=O)C(=O)N1CCC[C@H](N1)C(=O)OCC(C)(C)C2 [Compound 192]
-- reply 6.00 to 7.00

---

System: AsPC-1 (K-Ras G12D)
Assay: CellTiter-Glo cell viability assay, AsPC-1
Assay type: cell-based
Conditions: Homo sapiens, ASPC1, 120 h, read-out: AsPC-1 Cell Viability IC50, AsPC-1, K-Ras G12D, 5-day treatment
MEASURED_METRIC: IC50

-- ask Consider the compound CCn1c(-c2cnccc2COC)c2c3cc(ccc31)-c1cc(O)cc(c1)C[C@H](NC(=O)[C@H](C(C)C)N(C)C(=O)CN(C)C(=O)[C@@H]1N[C@@H]1C(=O)OC)C(=O)N1CCC[C@H](N1)C(=O)OCC(C)(C)C2 [Example 49] . State its measured IC50.
-- reply 1 to 10 µM

---

System: AsPC-1 (K-Ras G12D)
Experiment: CellTiter-Glo cell viability assay, AsPC-1
Type: cell-based
Conditions: Homo sapiens, ASPC1, 120 h, read-out: AsPC-1 Cell Viability IC50, AsPC-1, K-Ras G12D, 5-day treatment
pIC50: −log10 of the molar value.
Form field: pIC50 (one value per entry).

Some solved cases for reference:
CCn1c(-c2cnccc2COC)c2c3cc(ccc31)-c1cc(O)cc(c1)C[C@H](NC(=O)[C@H](C(C)C)N(C)C(=O)CN(C)C(=O)[C@H]1CN1)C(=O)N1CCC[C@H](N1)C(=O)OCC(C)(C)C2; 6.00 to 7.00
CCn1c(-c2cnccc2COC)c2c3cc(ccc31)-c1cc(O)cc(c1)C[C@H](NC(=O)[C@H](C(C)C)N(C)C(=O)CN(C)C(=O)[C@H]1N[C@H]1c1ccc(OC)cc1)C(=O)N1CCC[C@H](N1)C(=O)OCC(C)(C)C2; < 5.00
CCn1c(-c2cnccc2COC)c2c3cc(ccc31)-c1cc(O)cc(c1)C[C@H](NC(=O)[C@H](C(C)C)N(C)C(=O)CN(C)C(=O)[C@H]1N[C@@H]1c1ccc(OC)cc1)C(=O)N1CCC[C@H](N1)C(=O)OCC(C)(C)C2; 5.00 to 6.00
CCn1c(-c2cccnc2[C@H](C)OC)c2c3cc(ccc31)-c1cc(O)cc(c1)C[C@H](NC(=O)[C@H](C(C)C)N(C)C(=O)CN(C)C(=O)[C@@H]1N[C@H]1C1COC1)C(=O)N1CCC[C@H](N1)C(=O)OCC(C)(C)C2; 6.00 to 7.00
CCn1c(-c2cccnc2[C@H](C)OC)c2c3cc(ccc31)-c1cc(O)cc(c1)C[C@H](NC(=O)[C@H](C(C)C)N(C)C(=O)CN(C)C(=O)[C@@H]1CN1CCCC#N)C(=O)N1CCC[C@H](N1)C(=O)OCC(C)(C)C2 (some centres unmarked); 6.00 to 7.00
CCn1c(-c2cccnc2[C@H](C)OC)c2c3cc(ccc31)-c1cc(O)cc(c1)C[C@H](NC(=O)[C@H](C(C)C)N(C)C(=O)CN(C)C(=O)[C@@H]1CN1C1COC1)C(=O)N1CCC[C@H](N1)C(=O)OCC(C)(C)C2 (some centres unmarked); 5.00 to 6.00
CCn1c(-c2cccnc2[C@H](C)OC)c2c3cc(ccc31)-c1cc(O)cc(c1)C[C@H](NC(=O)[C@H](C(C)C)N(C)C(=O)CN(C)C(=O)[C@H]1CN1CCCOC(C)=O)C(=O)N1CCC[C@H](N1)C(=O)OCC(C)(C)C2 (some centres unmarked); 6.00 to 7.00
CCn1c(-c2cccnc2[C@H](C)OC)c2c3cc(ccc31)-c1cc(O)cc(c1)C[C@H](NC(=O)[C@H](C(C)C)N(C)C(=O)CN(C)C(=O)[C@H]1CN1CCCC#N)C(=O)N1CCC[C@H](N1)C(=O)OCC(C)(C)C2 (some centres unmarked); 6.00 to 7.00

-- ask Give the reported pIC50 for this compound. CC[C@H]1N[C@H]1C(=O)N(C)CC(=O)N(C)[C@H](C(=O)N[C@H]1Cc2cc(O)cc(c2)-c2ccc3c(c2)c(c(-c2cccnc2[C@H](C)OC)n3CC)CC(C)(C)COC(=O)[C@@H]2CCCN(N2)C1=O)C(C)C
-- reply 6.00 to 7.00

-- ask For the compound CCn1c(-c2cccnc2[C@H](C)OC)c2c3cc(ccc31)-c1cc(O)cc(c1)C[C@H](NC(=O)[C@H](C(C)C)N(C)C(=O)CNC(=O)[C@@H]1CN1)C(=O)N1CCC[C@H](N1)C(=O)OCC(C)(C)C2 , give its measured pIC50 value.
-- reply 5.00 to 6.00

-- ask Answer with reported pIC50 of CCn1c(-c2cccnc2[C@H](C)OC)c2c3cc(ccc31)-c1cc(O)cc(c1)C[C@H](NC(=O)[C@H](C(C)C)N(C)C(=O)[C@@H](C)N(C)C(=O)[C@H]1CN1)C(=O)N1CCC[C@H](N1)C(=O)OCC(C)(C)C2
-- reply 5.00 to 6.00
